The measurements presented in this section are drawn from patent US20210009693A1.

Examples of binders with documented OD450 nM of sample-1 follow.
# SUBJECT OF TEST: T1, human PD-L1-Fc mutant E58A (human)
# T1 construct: Position 58 counts on native human PD-L1 (NP_054862.1); also called E58A mutant
# TEST NAME: ELISA on captured PD-L1-Fc, as in Example 18A
Enter your answer as a number in OD450; do not include the unit.

22C9 (antibody, V domains shown, Mouse monoclonal from hybridoma; also called mouse monoclonal antibody 22C9) VH: QVQLQQSGAELVKPGASVKLSCKASGYTFTSYWMHWVWQRPGQGLEWIGMIHPNSDITNCNENFKHTVTLTVDKSSSTAYMQLSSLTSEDSAVFYCARSDGSSYWYFDVWGTGTTVTVSS VL: SIVMTQTPKFLSVSAGDRVTITCKAGQSVNNDVAWYQQKPGQSPKLLIYYASNRYTGVPDRFTGSGYGTDFTFTISTVQAEDLAVYFCQQDFSSPLTFGAGTKLELK; 0.35
23F11 (antibody, V domains shown, also called mouse monoclonal antibody 23F11; clone 23F11) VH: QVQLQQPGAELVKPGASVKLSCKASGYSFTTYWMHWVKQRPGQGLEWIGMIQPNSGGTKYNEKFKKKATLTVDKSSTTASMELSSLTSEDSAVYYCARGAGTVDYFDYWGQGSTLTVSS VL: DIVLTHSPVSLAVSLGQRATISCRASESVDIYGNSFMHWYQQKPGQPPKLLIYRASNLESGIPARFSGSGSRTDFTLTINPVEADDVATYYCQQSTEDPYTFGGGTKLEIK; 0.383
23F11-H4L4 (antibody, V domains shown, Human IgG1 constant region with N297A; biotinylated in the alanine-scan ELISA; also called 23F11-H4L4-bio; humanized 23F11) VH: QVQLVQSGAEVKKPGASVKLSCKASGYIFTTYWMHWVKQRPGQGLEWIGMIQPNSGGTKYNEKFKKKATLTVDKSISTAYMELSRLTSDDTAVYYCARGAGTVDYFDYWGQGSTLTVSS VL: DIVLTQSPASLAVSVGQRATITCRASESVDIYGNSFMHWYQQKPGQPPKLLIYRASNLESGIPARFSGSGSRTDFTLTINPVEANDTATYYCQQSTEDPYTFGGGTKLEIK; 0.129
26F5 (antibody, V domains shown, Mouse monoclonal from hybridoma; also called mouse monoclonal antibody 26F5) VH: QVQLQQPGAELVKPGASVKLSCKASGYTFPSYWMHWMKQRPGQGLEWIGMIQPSTSGTIYNERFKNQVTLTVDKSSSTAYMQLSSQTSEDSAVYYCARGTGTVDYFDYWGQGTTLTVSS VL: DIVLTQSPASLAVSLGQRATISCRASESVDSYGNSFIHWYQQKPGQPPKLLIHRASNLESGIPATFSGSGSRTDFTLTINPVEADDVATYYCQQSKEDPYTFGGGTKLEIK; 1.18
4B6 (antibody, V domains shown, Mouse monoclonal purified from hybridoma; also called mouse monoclonal antibody 4B6) VH: EVQLQQSGPELVKPGASVKISCKASGYVFTDYYMNWVKQSHGKSLEWIGDINPNNGGTSYNHKFKGKATVTVDKSSRTAYMELLSLTSEDSAVYYCVKWGDGPFAYWGQGTLVTVSA VL: DIVMTQSQKFMSTSVGDRVSITCKASQNVGAAVAWYQQKPGQSPKLLIYSASNRYTGVPDRFTGSGSGTDFTLTISNMQSEDLADYFCQQYSNYPTFGSGTKLGIK; 1.06
18G4 (antibody, V domains shown, Mouse monoclonal from hybridoma; also called mouse monoclonal antibody 18G4) VH: QVQLQQPGTALVKPGASVKLSCKASGYTFSSYYIHWVKQRPGQGLEWIGNINPFNGGSIYNEKFKNKASLTVDTSSNTAYMQLSSLTSEDSAVYYCARWHFDYWGQGTSLTVSS VL: DIVMTQSPSSLAVTAGEKVTLKCKSSQSLLWSGNQNNYLSWYQQKQGQPPKLLIYGASIRESWVPDRFTGSGSGTDFTLTIGNVSAEDLAVYYCQHNHGSFLPYTFGGGTRLEIK; 1.52

Challenge: Give the measured OD450 nM of sample-1 for 23A11-H3L5 (antibody, V domains shown, Human IgG1 constant region with N297A; biotinylated in the alanine-scan ELISA; also called 23A11-H3L5-bio; humanized 23A11) VH: LVQLVQSGAEVKKPGASVKLSCKASGYIFTTYWIHWVKQRPGQGLEWIGMIQPNSGGTKYNDQFKNRATLTVDKSISTAYMELSRLTSDDTAVYYCARGAGTVDYFDYWGQGTTLSISS VL: DIVLTQSPASLAVSVGQRATITCRASESVDIYGNSFMHWYQQKPGQAPKLLIYRASNLESGIPARFSGSGSRTDFTLTINPVEANDTATYYCQQSNDDPYTFGGGTKLETK
Response given: 0.128
